- TESTED ON: T1, soluble human CD73 (Homo sapiens, UniProt P21589)
- T1 construct: The ectodomain of CD73 (aa 27-549) was expressed as a recombinant protein with a C-terminal His6× tag; His6 (C); made in house; host or cells: transiently transfected HEK cells
- T1 sequence (P21589 27-549): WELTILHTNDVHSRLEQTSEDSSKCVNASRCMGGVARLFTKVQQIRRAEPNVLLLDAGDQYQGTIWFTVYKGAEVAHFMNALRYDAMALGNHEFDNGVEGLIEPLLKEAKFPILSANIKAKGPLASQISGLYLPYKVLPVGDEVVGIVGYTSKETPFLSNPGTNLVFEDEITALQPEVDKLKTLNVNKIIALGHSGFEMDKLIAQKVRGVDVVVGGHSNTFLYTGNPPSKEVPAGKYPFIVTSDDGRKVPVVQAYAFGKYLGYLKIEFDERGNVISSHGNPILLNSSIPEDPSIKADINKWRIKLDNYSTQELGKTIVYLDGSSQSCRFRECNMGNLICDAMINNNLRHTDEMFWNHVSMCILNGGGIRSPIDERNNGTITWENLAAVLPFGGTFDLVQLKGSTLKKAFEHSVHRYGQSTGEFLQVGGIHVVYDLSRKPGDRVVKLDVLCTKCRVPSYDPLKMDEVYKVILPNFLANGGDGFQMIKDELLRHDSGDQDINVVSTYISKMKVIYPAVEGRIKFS
- TEST PROTOCOL: Off-rates of soluble CD73 from immobilized Nb-rbIgG hcAb on Octet BLI
- Assay type: binding
- ASSAY CONDITIONS: soluble human CD73 ectodomain 200 ng/μl as analyte; Nb-rbIgG hcAb immobilized on protein A biosensor
- Method: The binding off-rate constants of bivalent hcAbs to human and mouse CD73 protein were determined by […] kinetic analysis on Octet RED96 (ForteBio). Immobilization of rabbit IgG hcAbs on the protein A-biosensor surface was done in HEK-6E cell supernatant, and regeneration of analytes was done with 100 mM Glycin pH=2.5. Recombinant mouse or human CD73 ectodomain was used as analytes and tested at a saturating dose of 200 ng/μl. […]
MEASURED PROPERTY: Kdis

- MOLECULE: "SB141: CD73-specific alpaca VHH clone, family 2 in Tables 2-3, SEQ ID NO:72; tested as rabbit or human IgG hcAb (antibody, left off: a dimerising Fc or GST, tested as rabbit or human IgG hcAb) heavy: QVQLVESGGGLVQPGGSLRLSCAASGFTFINYHMSWLRQAPGKGLEWVSEIHSRGDITSYTNSVKGRFTISRDNAKNTLYLQMNSLKFDDTAVYYCARSRDLFNEGEYDYWGRGTQVTVSS"
  RESULT: "0.00045 s⁻¹"
- MOLECULE: "SB143: CD73-specific alpaca VHH clone, family 4 in Tables 1-3, SEQ ID NO:69; tested as rabbit or human IgG hcAb (antibody, left off: a dimerising Fc or GST, tested as rabbit or human IgG hcAb) heavy: QVQLVESGGGLVQAGGSLRLSCAASGRTFSRSTMGWFRQAPGKERVFVAAIRWIGGTTTYGDSVKGRFTISVDNAKNTLYLQMNSLKPEDTAVYYCAATAGGPYYLGGRDILYDYWGQGTQVTVSS"
  RESULT: "0.0013 s⁻¹"
- MOLECULE: "SB125: CD73-specific alpaca VHH clone, family 1, SEQ ID NO:68; tested as rabbit IgG hcAb (antibody, left off: a dimerising Fc or GST, tested as rabbit IgG hcAb) heavy: QVQLQESGGGLVQPGGSLRLSCAVSGFALDYYTIGWFRQAPGKEREGVSCISSSGGSTNYADSVKGRLTISRDNAKNTVYLQMNSLKPEDTAVYYCAAQRYYYCSDKVEVYDYWGQGTQVTVSS"
  RESULT: "0.00058 s⁻¹"
